molecular target: GABA-A receptor; alpha-1/beta-3/gamma-2 (Homo sapiens, UniProt P14867+P18507+P28472); assay: Activity at GABAA alpha-1-beta-3-gamma-2 receptor expressed in Xenopus oocytes assessed as inhibition of GABA-induced current by voltage clamp assay; format: cell-based, Oocyte
assay-readout: EC50 (µM)
Only the number, expressed in µM, is required.

Prompt: Supply measured EC50 of `C#Cc1ccc2c(c1)C(=O)N(C)Cc1c(C(=O)OC(C)(C)C)ncn1-2` in your reply.
Completion: 74.4

* * *

target: GABA-A receptor; alpha-6/beta-3/gamma-2 (Homo sapiens, UniProt P18507+P28472+Q16445); assay: Binding affinity to GABAA alpha-6-beta-3-gamma-2 receptor
Sequence (P18507 whole entry): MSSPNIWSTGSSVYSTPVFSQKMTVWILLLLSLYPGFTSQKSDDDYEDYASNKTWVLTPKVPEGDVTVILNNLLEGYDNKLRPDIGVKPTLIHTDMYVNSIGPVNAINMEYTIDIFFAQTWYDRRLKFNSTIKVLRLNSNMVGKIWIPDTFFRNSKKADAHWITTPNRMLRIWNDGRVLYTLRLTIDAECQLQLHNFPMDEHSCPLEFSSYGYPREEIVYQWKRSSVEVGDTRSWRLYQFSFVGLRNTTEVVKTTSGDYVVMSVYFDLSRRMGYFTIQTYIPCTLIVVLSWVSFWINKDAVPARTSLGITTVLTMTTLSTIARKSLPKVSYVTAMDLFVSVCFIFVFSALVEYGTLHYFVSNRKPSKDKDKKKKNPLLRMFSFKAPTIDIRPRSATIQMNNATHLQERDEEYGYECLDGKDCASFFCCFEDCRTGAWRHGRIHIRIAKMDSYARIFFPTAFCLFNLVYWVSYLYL
Sequence (P28472 whole entry): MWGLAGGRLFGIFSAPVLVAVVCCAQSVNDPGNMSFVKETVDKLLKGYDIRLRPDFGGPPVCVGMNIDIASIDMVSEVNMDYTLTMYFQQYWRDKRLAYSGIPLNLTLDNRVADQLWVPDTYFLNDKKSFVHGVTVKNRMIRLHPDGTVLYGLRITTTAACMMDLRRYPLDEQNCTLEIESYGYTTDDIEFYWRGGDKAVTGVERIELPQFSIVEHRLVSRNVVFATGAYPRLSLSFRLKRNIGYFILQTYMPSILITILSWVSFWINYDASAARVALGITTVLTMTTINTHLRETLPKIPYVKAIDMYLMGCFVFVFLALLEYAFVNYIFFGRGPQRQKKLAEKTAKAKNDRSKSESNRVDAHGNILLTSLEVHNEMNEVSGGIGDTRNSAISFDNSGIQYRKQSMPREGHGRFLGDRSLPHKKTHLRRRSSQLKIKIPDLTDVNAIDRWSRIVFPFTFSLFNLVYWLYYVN
Sequence (Q16445 whole entry): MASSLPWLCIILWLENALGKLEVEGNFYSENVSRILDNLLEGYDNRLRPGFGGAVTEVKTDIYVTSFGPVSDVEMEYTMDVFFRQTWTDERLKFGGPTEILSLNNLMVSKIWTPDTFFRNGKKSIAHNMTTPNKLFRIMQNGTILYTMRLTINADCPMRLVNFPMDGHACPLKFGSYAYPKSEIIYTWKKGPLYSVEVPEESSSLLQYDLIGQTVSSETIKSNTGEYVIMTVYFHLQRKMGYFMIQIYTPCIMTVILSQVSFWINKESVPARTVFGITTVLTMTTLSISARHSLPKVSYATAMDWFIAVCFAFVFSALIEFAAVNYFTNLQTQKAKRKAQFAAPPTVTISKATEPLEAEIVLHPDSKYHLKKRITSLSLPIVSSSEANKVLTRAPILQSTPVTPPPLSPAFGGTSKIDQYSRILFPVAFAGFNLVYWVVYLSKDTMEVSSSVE
For each entry below, report its pKi value.
Recall that pKi is obtained by taking minus log10 of the concentration measured in molar.

Prompt: Supply measured pKi of CN1CC2C(C(=O)OC(C)(C)C)=NCN2c2ccc(C#C[Si](C)(C)C)cc2C1=O (configuration not stated) in your reply.
Completion: 7.23

Prompt: Supply measured pKi of `COCc1ncn2c1CN(C)C(=O)c1cc(Cl)ccc1-2` in your reply.
Completion: 5.05

* * *

molecular target: Gamma-aminobutyric acid receptor subunit alpha-5 (Homo sapiens, UniProt P18507+P31644+P47870); assay: Binding affinity to GABAA alpha-5-beta-2-gamma-2 receptor
Sequence (P31644 whole entry, one chain of several): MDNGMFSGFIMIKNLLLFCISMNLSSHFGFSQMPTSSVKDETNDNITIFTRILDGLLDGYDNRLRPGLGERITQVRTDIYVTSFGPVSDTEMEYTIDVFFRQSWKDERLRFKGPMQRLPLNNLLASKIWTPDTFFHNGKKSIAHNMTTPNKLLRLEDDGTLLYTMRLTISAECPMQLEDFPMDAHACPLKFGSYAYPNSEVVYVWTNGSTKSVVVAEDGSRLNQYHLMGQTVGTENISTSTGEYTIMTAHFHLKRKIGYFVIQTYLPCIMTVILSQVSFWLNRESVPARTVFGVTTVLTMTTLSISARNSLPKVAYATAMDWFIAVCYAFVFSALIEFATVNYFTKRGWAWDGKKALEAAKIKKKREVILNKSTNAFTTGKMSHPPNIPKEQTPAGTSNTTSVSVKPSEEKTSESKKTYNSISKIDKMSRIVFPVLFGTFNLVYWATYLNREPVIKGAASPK
For each entry below, report its pKi value.
Recall that pKi is obtained by taking minus log10 of the concentration measured in molar.

Prompt: Supply measured pKi of `CCCCC(=O)c1ncn2c3ccc(Cl)cc3c(=O)n(C)c12` in your reply.
Completion: 6.78

Prompt: Supply measured pKi of `CCc1ncn2c3ccc(Cl)cc3c(=O)n(C)c12` in your reply.
Completion: 6.74

Prompt: Supply measured pKi of `CCOCc1ncn2c3ccc(Cl)cc3c(=O)n(C)c12` in your reply.
Completion: 7.08

Prompt: Supply measured pKi of `Cn1c(=O)c2cc(Cl)ccc2n2cnc(C(=O)OCC3CC3)c12` in your reply.
Completion: 8.01

Prompt: Supply measured pKi of `Cn1c(=O)c2cc(Cl)ccc2n2cnc(CCl)c12` in your reply.
Completion: 6.30

Prompt: Supply measured pKi of `CCCCCc1ncn2c3ccc(Cl)cc3c(=O)n(C)c12` in your reply.
Completion: 6.43

Prompt: Supply measured pKi of `CC(=O)c1ncn2c3ccc(Cl)cc3c(=O)n(C)c12` in your reply.
Completion: 5.58

Prompt: Supply measured pKi of `Cn1c(=O)c2cc(Cl)ccc2n2cnc(C(=O)OC(C)(C)C)c12` in your reply.
Completion: 9.19

* * *

Molecular target: Gamma-aminobutyric acid receptor subunit alpha-1 (Homo sapiens, UniProt P14867+P18507+P47870)
Sequence (P14867 whole entry): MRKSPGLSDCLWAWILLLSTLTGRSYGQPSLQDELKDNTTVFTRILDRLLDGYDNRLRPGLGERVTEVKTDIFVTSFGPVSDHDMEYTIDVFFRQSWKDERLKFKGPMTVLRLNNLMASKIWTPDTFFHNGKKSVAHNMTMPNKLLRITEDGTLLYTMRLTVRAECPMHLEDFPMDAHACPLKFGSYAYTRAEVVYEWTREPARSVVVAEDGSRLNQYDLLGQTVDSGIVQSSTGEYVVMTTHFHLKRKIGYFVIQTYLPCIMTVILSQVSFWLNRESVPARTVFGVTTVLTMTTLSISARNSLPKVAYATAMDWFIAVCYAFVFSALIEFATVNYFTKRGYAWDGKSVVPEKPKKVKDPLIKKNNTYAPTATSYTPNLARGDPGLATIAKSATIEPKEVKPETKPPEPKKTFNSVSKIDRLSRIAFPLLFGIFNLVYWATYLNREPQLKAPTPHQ
Test: Displacement of [3H]Ro15-4513 from GABAA alpha-1-beta-2-gamma-2 receptor expressed in Sf9 baculovirus system
For each entry below, report its pIC50 value.
Recall that pIC50 is obtained by taking minus log10 of the concentration measured in molar.

Prompt: Supply measured pIC50 of CSC1SC(C(=O)c2ccc(Cl)cc2)C2CCCC(=O)C12 (stereo not drawn) in your reply.
Completion: 6.24

Prompt: Supply measured pIC50 of `Nc1c(C(=O)c2ccc(Cl)cc2)sc2ccccc12` in your reply.
Completion: 6.00

Prompt: Supply measured pIC50 of `CSc1nccc(-c2ccc(S(=O)(=O)Nc3ccc(Cl)cc3)s2)n1` in your reply.
Completion: 6.33

Prompt: Supply measured pIC50 of CSC1SC(C(=O)c2ccc(Cl)cc2)C2CC(C)(C)CC(=O)C12 (stereo not drawn) in your reply.
Completion: 6.24
